Literature roundup of Amyloid-beta precursor protein (Homo sapiens) data, read-out Ki.

COMPOUND	Ki (nM)
OCCOc1ncc(C#Cc2ccc(O)cc2)cc1I	6.2
O=[N+]([O-])c1ccc(-c2ccc(-c3ccc([N+](=O)[O-])cc3)s2)cc1	185
CN(C)c1ccc(/C=C/C=C2\C(=O)N(C)c3ccccc32)cc1 (mixture of isomers)	56
COc1ccc(-c2ccc(-c3ccc([N+](=O)[O-])cc3)s2)cc1	18.5
CN(C)c1ccc(COc2ccc(OCCOCCF)cc2)cc1	191
COc1ccc(/C=C2\COc3ccc(Br)cc3C2=O)cc1OC	54.2
CN(C)c1ccc(-c2ccc(-c3ccc(O)cc3)s2)cc1	7.5
Oc1ccc(/C=C/c2cnc(OCCOCCOCCF)c(I)c2)cc1	21
COc1ccc(C#Cc2ccc(N)cc2)cc1	2.9
OCCOc1ncc(/C=C/c2ccc(O)cc2)cc1I	15.5
CN(C)c1ccc(C#CC(=O)c2ccc(I)cc2)cc1	6
CN(C)c1ccc(/C=C/C=C2\C(=O)Nc3ncccc32)cc1 (mixture of isomers)	15.3
Nc1ccc(-c2ccc(-c3ccc(O)cc3)s2)cc1	9.6
CNc1ccc(/C=C/c2ccc(OCC(CO)CO)cc2)cc1	32.5
COc1ccc(CN2C(=O)/C(=C\C=C\c3ccc(N(C)C)cc3)c3ccccc32)cc1 (mixture of isomers)	130
O=C1/C(=C/c2ccc([N+](=O)[O-])cc2)COc2ccc(Br)cc21	108
CSc1ccc2nc(-c3ccc(N)cc3)cn2c1	377
CN(C)c1ccc(/C=C2\COc3ccc(Br)cc3C2=O)cc1	9.1
Nc1ccc(C#Cc2ccc(OCCOCCOCCF)cc2)cc1	21.5
COc1ccc(-c2ccc(-c3ccc(OC)cc3)s2)cc1	108
CN(C)c1ccc(/C=C/c2ccc(OCC(CO)C[18F])cc2)cc1 (centres undefined)	15
CN(C)c1ccc(C#CC(=O)c2ccc(F)cc2)cc1	20.4
CNc1ccc(-c2nc3ccc(O)cc3s2)cc1[18F]	0.7
CNc1ccc(-c2ccc(-c3ccc(O)cc3)s2)cc1	31.2

* * *

Literature roundup of Amyloid-beta precursor protein (Homo sapiens) data, read-out Ki.

COMPOUND	UNIT_OF_MEASURE	LIMIT_QUALIFIER	Ki
CN(C)c1ccc(-c2cn3cc(Br)cc(I)c3n2)cc1	nM	=	183
CN(C(=O)C(F)(F)F)c1ccc(-c2cn3cc(Br)ccc3n2)cc1Br	nM	>	1000
Nc1ccc(C#Cc2ccc(O)cc2)cc1	nM	=	106
O=C(C#Cc1ccc(O)cc1)c1ccc(I)cc1	nM	=	326
CN(C)c1ccc(C#Cc2ccc(OCCOCCF)cc2)cc1	nM	=	5
COc1ccc2nc3cc(I)ccc3c(N(C)C)c2c1	nM	=	121
CN(C)c1ccc(-c2cn3cc(Br)cc(C#N)c3n2)cc1	nM	>	180
COc1ccc2nc3cc(I)ccc3c(N)c2c1	nM	=	83.5
CN(CCF)c1ccc(-c2cc3ccccc3n2C)cc1	nM	=	117
CNc1ccc(-c2nc3c(O)cccc3s2)cc1	nM	=	18.8
CNc1ccc(C#Cc2ccc(O)cc2)cc1	nM	=	1.5
CNc1ccc(-c2cc3cc(O)ccc3o2)cc1	nM	=	0.7
COC(=O)CCSc1ccc2nc(-c3ccc(N(C)C)cc3)cn2c1	nM	=	205
CNc1ccc(C#Cc2cnc(OCCO)c(Br)c2)cc1	nM	=	1.6
COc1ccc2nc(-c3ccc4nc(-c5ccc(N)cc5)sc4c3)sc2c1	nM	=	25
CN(C)c1ccc(-c2cn3cc(CCCF)ccc3n2)cc1	nM	=	48.3
CNc1ccc2nc(-c3ccc(F)cc3)sc2c1	nM	=	4.1
CN(C)c1ccc(/C=C2\Oc3ccc([125I])cc3C2=O)cc1	nM	=	6.82
CN(C)c1ccc(/C=C/C=C2\C(=O)Nc3ccccc32)cc1 (mixture of isomers)	nM	=	27.6
CN(C)c1ccc(/C=C/c2cnc(OCCO)c(I)c2)cc1	nM	=	7.5
CNc1ccc(C#Cc2ccc(OCCOCCOCCF)cc2)cc1	nM	=	1.9
CNc1ccc(/C=C/c2ccc(OCC(CO)C[18F])cc2)cc1 (configuration not stated)	nM	=	5
CN(C)c1ccc(-c2nc3ccc(-c4nc5ccc(F)cc5s4)cc3s2)cc1	nM	=	23
CN(C)c1ccc(/C=C/C=C2\C(=O)N(Cc3ccccc3)c3ncccc32)cc1 (mixture of isomers)	nM	=	85.1
COc1ccc2oc(-c3ccc(N(C)C)cc3)cc2c1	nM	=	12
Nc1ccc(/C=C/C=C2\C(=O)Nc3ccccc32)cc1 (mixture of isomers)	nM	=	50.8
CN(C)c1ccc(/C=C2\COc3ccc(Br)cc3C2=O)cc1Br	nM	=	25.5
Oc1ccc(-c2ccc(-c3ccc(O)cc3)s2)cc1	nM	=	4
Nc1ccc(-c2nc3ccc(-c4nc5ccc(F)cc5s4)cc3s2)cc1	nM	=	36
CN(C)c1ccc(/C=C/C=C2\C(=O)N(Cc3ccc([N+](=O)[O-])cc3)c3ccccc32)cc1 (mixture of isomers)	nM	=	92.4
Nc1ccc(C#Cc2ccc(OCCOCCOCCO)cc2)cc1	nM	=	67.6
Cc1ccc(S(=O)(=O)OCC(CO)COc2ccc(/C=C/c3ccc(N(C)C)cc3)cc2)cc1 (configuration not stated)	nM	=	150
Cc1ccc2nc(-c3ccc(F)cc3)sc2c1	nM	=	5.7
COc1ccc(C#CC(=O)c2ccc(I)cc2)cc1	nM	=	13.7
COc1ccc(/C=C/C=C2\C(=O)N(Cc3ccccc3)c3ccccc32)cc1 (mixture of isomers)	nM	=	741
O=C(O)c1cc(/C=C/c2ccc(/C=C/c3ccc(O)c(C(=O)O)c3)c(Br)c2)ccc1O	nM	=	0.11
CN(CCF)c1ccc(-c2cc3ccccc3[nH]2)cc1	nM	=	28.4
Oc1ccc(/C=C/c2cnc(OCCOCCOCCF)c(Br)c2)cc1	nM	=	14.2
COc1ccc(COc2ccc(OCCOCCOCCF)cc2)cc1	nM	=	770
CNc1ccc(-c2cc3cc(OC)ccc3o2)cc1	nM	=	1.3
COc1ccc(-c2ccc(-c3ccc(O)cc3)s2)cc1	nM	=	6.1
COc1ccc(COc2ccc(OCCF)cc2)cc1	nM	=	119
CN(C)c1ccc(/C=C2\Nc3ccc(I)cc3C2=O)cc1	nM	=	240
CN(CCCF)c1ccc(-c2cc3ccccc3[nH]2)cc1	nM	=	31.5
COc1c2ccc(I)cc2nc2ccc(N(C)C)cc12	nM	=	30
CNc1ccc(-c2nc3ccc(-c4nc5ccc(Cl)cc5s4)cc3s2)cc1	nM	=	6.8
COc1ccc2nc(-c3ccc(F)cc3)sc2c1	nM	=	2.2

* * *

pKi: −log10 of the molar value.
Literature roundup of Amyloid-beta precursor protein (Homo sapiens, UniProt P05067) data, read-out pKi.
ATTRIBUTE_MEASURED: pKi

COMPOUND	LIMIT_QUALIFIER	MEASUREMENT
Nc1ccc(C#Cc2ccc(N)cc2)cc1	=	7.12
Nc1ccc(-c2ccc(-c3ccc(N)cc3)s2)cc1	=	8.21
CN(C)c1ccc(/C=C/c2cnc(OCCOCCOCCF)c(Br)c2)cc1	=	8.17
COc1ccc(OCc2ccc(OCCF)cc2)cc1	=	6.82
CNc1ccc(-c2cn3cc(SCCO)ccc3n2)cc1C	<	6.00
Nc1ccc(/C=C2\COc3ccc(Br)cc3C2=O)cc1	=	7.20
COc1ccc(C#Cc2ccc(O)cc2)cc1	=	8.54
O=C1/C(=C/c2ccc(Br)cc2)COc2ccc(Br)cc21	=	6.84
CNc1ccc(C#Cc2ccc(OCCOCCO)cc2)cc1	=	8.51
CNc1ccc(-c2nc3ccc(-c4nc5ccc(F)cc5s4)cc3s2)cc1	=	7.57
CC(=O)N(C)c1ccc(-c2cn3cc(Br)ccc3n2)cc1C	<	6.00
CN(C)c1ccc(C#Cc2cnc(OCCO)c(I)c2)cc1	=	8.04
CN(C)c1ccc(C#Cc2ccc(OCCOCCO)cc2)cc1	=	8.42
CN(C)c1ccc(/C=C/C=C2\C(=O)Nc3ccc(O)cc32)cc1 (mixture of isomers)	=	7.43
Nc1ccc(-c2cc3cc(O)ccc3o2)cc1	=	7.94
CN(C)c1ccc(/C=C/c2ccc(O)cc2)cc1	=	8.96
O=C1/C(=C/c2ccc(O)cc2)COc2ccc(Br)cc21	=	6.99
